Tgt: Amyloid-beta precursor protein (Homo sapiens, UniProt P05067)
Sequence (P05067 whole entry): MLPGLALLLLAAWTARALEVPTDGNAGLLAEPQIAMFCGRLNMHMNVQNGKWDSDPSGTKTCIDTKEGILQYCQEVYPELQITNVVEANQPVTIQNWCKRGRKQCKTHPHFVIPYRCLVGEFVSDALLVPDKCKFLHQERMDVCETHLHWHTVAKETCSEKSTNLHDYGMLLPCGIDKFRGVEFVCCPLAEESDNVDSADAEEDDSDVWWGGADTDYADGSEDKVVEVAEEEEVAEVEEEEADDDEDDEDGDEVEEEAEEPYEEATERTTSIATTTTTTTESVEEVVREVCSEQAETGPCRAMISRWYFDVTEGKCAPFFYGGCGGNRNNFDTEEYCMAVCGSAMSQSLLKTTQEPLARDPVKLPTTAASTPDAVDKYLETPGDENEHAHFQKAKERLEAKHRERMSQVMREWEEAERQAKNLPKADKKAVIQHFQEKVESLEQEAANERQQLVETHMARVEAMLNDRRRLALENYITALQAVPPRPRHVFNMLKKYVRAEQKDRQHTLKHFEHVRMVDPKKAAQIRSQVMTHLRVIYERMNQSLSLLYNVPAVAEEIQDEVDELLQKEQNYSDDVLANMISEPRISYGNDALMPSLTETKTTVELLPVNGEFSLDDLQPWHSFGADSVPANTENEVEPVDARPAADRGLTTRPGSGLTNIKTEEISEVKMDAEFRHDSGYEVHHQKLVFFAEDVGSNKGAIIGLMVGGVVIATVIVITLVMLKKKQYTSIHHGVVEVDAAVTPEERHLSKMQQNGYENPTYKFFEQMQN
Protocol description: Inhibition of amyloid beta (1 to 42) (unknown origin) aggregation incubated for 24 hrs by ThT assay
Quantity measured: pIC50
pIC50 is defined as minus the log10 of a concentration measured in mol/L.

*Q* Can you share its pIC50? I mean this compound: CCCCCCCCCCCCCCCCC(=O)O
*A* 4.55

###

Tgt: Piezo1 (Homo sapiens)
Protocol description: Antagonist activity at Yoda1-activated human Piezo1 in HUVECs assessed as inhibition of calcium influx by calcium fluorescence assay
Quantity measured: pIC50
pIC50 is defined as minus the log10 of a concentration measured in mol/L.

*Q* Give recorded pIC50 with Piezo1 (Homo sapiens) for the following compound: O=C(/C=C/c1ccc(O)c2c1[C@H](C(=O)O[C@H](Cc1ccc(O)c(O)c1)C(=O)O)[C@@H](c1ccc(O)c(O)c1)O2)O[C@H](Cc1ccc(O)c(O)c1)C(=O)O
*A* 5.86
